target: Human Nav1.5 (Homo sapiens); construct: expressed in transfected cells; host or cells: HEK293; assay: Nav1.5 Assay (VIPR, HEK293 cells); type: cell-based; conditions: HEK293 cells expressing Human Nav1.5; average of replicates; read-out: Nav1.5 IC50
Sequence (Q14524 whole entry): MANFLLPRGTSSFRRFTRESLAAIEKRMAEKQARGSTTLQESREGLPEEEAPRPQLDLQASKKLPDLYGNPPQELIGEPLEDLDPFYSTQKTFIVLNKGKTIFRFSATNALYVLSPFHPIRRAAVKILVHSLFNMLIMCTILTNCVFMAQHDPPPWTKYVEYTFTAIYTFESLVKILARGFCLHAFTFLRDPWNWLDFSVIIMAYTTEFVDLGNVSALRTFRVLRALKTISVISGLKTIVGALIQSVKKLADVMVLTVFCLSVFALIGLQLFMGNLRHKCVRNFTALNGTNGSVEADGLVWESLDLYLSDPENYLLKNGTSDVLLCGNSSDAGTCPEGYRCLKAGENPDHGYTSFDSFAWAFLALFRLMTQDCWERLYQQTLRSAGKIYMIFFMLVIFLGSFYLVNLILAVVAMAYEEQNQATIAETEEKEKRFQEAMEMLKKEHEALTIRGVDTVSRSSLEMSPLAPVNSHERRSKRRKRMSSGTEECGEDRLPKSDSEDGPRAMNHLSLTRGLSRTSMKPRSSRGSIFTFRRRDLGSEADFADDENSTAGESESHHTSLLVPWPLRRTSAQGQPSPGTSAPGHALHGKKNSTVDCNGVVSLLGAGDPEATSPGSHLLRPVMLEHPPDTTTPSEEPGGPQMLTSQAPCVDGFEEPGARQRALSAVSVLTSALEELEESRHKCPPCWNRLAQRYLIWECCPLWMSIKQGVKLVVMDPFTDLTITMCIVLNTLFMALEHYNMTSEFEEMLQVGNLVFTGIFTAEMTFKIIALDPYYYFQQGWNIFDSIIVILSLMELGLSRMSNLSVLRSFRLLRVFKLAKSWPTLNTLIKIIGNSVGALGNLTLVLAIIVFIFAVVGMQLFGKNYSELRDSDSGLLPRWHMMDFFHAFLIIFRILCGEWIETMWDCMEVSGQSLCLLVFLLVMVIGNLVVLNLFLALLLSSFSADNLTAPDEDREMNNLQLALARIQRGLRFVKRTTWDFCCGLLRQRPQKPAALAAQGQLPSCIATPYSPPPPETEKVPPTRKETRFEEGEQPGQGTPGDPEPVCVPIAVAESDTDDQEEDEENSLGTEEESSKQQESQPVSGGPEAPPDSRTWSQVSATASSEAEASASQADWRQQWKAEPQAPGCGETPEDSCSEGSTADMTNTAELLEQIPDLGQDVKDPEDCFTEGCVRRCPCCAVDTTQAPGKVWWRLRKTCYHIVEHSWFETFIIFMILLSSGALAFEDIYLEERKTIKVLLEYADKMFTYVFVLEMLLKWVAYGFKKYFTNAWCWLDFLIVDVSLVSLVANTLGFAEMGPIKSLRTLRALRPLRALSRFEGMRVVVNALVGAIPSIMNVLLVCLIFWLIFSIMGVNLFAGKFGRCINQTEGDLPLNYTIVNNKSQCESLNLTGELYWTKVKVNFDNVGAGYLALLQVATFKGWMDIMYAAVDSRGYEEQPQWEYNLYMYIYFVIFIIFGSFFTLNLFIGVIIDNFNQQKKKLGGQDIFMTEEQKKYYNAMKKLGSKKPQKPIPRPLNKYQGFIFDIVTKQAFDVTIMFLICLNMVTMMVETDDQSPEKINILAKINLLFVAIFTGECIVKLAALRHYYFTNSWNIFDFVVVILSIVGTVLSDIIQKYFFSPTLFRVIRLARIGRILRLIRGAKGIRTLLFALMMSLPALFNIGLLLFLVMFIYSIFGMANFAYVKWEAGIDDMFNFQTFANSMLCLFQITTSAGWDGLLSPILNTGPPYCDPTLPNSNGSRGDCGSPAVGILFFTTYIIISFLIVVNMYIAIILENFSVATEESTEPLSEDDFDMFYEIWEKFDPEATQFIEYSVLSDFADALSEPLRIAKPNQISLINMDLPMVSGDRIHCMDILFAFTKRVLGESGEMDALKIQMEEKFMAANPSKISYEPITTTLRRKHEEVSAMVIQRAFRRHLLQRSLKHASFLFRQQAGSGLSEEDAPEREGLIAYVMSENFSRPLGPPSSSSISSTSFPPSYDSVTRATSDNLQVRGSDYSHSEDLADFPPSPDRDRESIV
Binary call on IC50 with cut-off 10 µM: strictly below means Criterion met, and equality or higher means Criterion not met.

COCc1cc(C(=O)Nc2ccc(-c3ccccc3Cl)c(N)n2)on1 [Example 95] | Criterion not met

Please determine if COC(C)COc1ccc(F)cc1-c1ccc(NC(=O)c2conc2C)nc1N (stereo not shown) [Example 159] is below 10 µM in terms of IC50. Criterion not met

Please determine if Cc1ccc(OC(F)(F)F)c(-c2ccc(NC(=O)c3ccnn3C)nc2N)c1 [Example 137] is below 10 µM in terms of IC50. Criterion not met
